Protocol details: Clearance in Sprague-Dawley rat at 20 mg/kg, ip administered as single dose by HPLC analysis
Type: ADME, organism-based
Experimental conditions: in vivo
Assay metric: CL/F
Answer as a quantity: numeral, then unit.

Request: Recorded CL/F for CN(C)C(=O)c1cc2cnc(Nc3ccc(NC(=O)CCCCCCC(=O)NO)cc3)nc2n1C1CCCC1 , please?
Result: 210 mL/min/kg

----------
Listing: IC50 of selected molecules
System: NCI-H1299
Protocol details: Cytotoxicity against human NCI-H1299 cells assessed as reduction in cell viability after 72 hrs by CCK8 assay
Type: functional, cell-based
Experimental conditions: NCI-H1299, 72 h
Entry rule: numbers only, all in µM.

1. CN(C)C(=O)c1cc2cnc(Nc3ccc(NC(=O)CCCCCCC(=O)NO)cc3)nc2n1C1CCCC1 1.87

Let's switch to this molecule now.
Request: Form field: IC50 recorded for CN(C)C(=O)c1cc2cnc(Nc3ccc(N4CCNCC4)cn3)nc2n1C1CCCC1 with NCI-H1299 (enter value)
Result: 5.46
